procedure.summary: Novel Modifiers of Survival Motor Neuron (SMN) Protein: Gene Identification via Genome-wide siRNA Screen;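 further: luminescence tracks full-length SMN protein made from the SMN2 reporter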
condition.summary: HEK293T SMN2-luciferase reporter, siRNA knockdown, 72 h; actives lie on both sides
About 1,400 (4.5%) of roughly 31,000 sequences were called active.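 How the source made its calls: active means median seed-adjusted z-score above 1 or below -1; inactive means the rest.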 Shown is part of a subset that was picked to be rich in actives.
Select the correct class. Options are YES (active), NO (inactive) and nothing else.

{"columns": ["chain.sequence", "class.label"],
 "data": [
  ["GGAUUAUAUUGACAUCAGUTT against DLST", "YES"],
  ["GCAAGACAACCAUUCUGUATT against ARF4", "NO"],
  ["GGCGGCAAGACGUAAGGAATT against SEMA3B", "NO"],
  ["GCAUUAGUCUGACAGUACATT against MRGPRX3", "NO"],
  ["GCCGUGACAUGAUAGGCAUTT against DDX41", "NO"]
]}

# next sequence below
## Task Write down the call the test reported for this sequence. Item: GAAUCUGUCAGGAAUGACATT against RARB
## Result NO

###

procedure.summary: Novel Modifiers of Survival Motor Neuron (SMN) Protein: Gene Identification via Genome-wide siRNA Screen;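 further: luminescence tracks full-length SMN protein made from the SMN2 reporter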
condition.summary: HEK293T SMN2-luciferase reporter, siRNA knockdown, 72 h; actives lie on both sides
About 1,400 (4.5%) of roughly 31,000 sequences were called active.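 How the source made its calls: active means median seed-adjusted z-score above 1 or below -1; inactive means the rest.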 Many of the other results were omitted from the sample, so actives are more common in it than they were.
Select the correct class. Options are active, inactive and nothing else.

Illustrative cases are given below, each with its answer.
{"columns": ["chain.sequence", "class.label"],
 "data": [
  ["GAGGAUUACUAAUUGAUCUTT against CHM", "inactive"],
  ["CCUCUAACCUUAGAUGAAATT against GTF2E2", "active"],
  ["GCAUCACACUCACAUCCCATT against DNASE2", "active"],
  ["ACAUAGUAAAGACUUUCUATT against PIGA", "inactive"],
  ["CAAACUCUACAUCACCUUUTT against GPR32", "active"]
]}

## Task Write down the call the test reported for this sequence. Item: CAUACACUCUACUCCUGCUTT against CDH26
## Result inactive

## Task Write down the call the test reported for this sequence. Item: CAAUCUAACUUUUCGGACATT against CLCA2
## Result inactive

## Task Write down the call the test reported for this sequence. Item: GACCCAUGGUAAAAUGCAATT against TWIST1
## Result inactive

## Task Write down the call the test reported for this sequence. Item: GCAACUCCUUCCUCGCUAATT against RBM17
## Result inactive

## Task Write down the call the test reported for this sequence. Item: GCAGCAUUAUAGUCGUAUUTT against PRSS7
## Result inactive

## Task Write down the call the test reported for this sequence. Item: GCACCUAUCUUGACCUGCUTT against CTSC
## Result inactive

## Task Write down the call the test reported for this sequence. Item: GGAGUGCCCACAGUCAGAATT against SMUG1
## Result active

###

procedure.summary: Novel Modifiers of Survival Motor Neuron (SMN) Protein: Gene Identification via Genome-wide siRNA Screen;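 further: luminescence tracks full-length SMN protein made from the SMN2 reporter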
condition.summary: HEK293T SMN2-luciferase reporter, siRNA knockdown, 72 h; actives lie on both sides
About 1,400 (4.5%) of roughly 31,000 sequences were called active. This excerpt belongs to a sample that is enriched for actives.
Each entry below carries its reported median seed-adjusted z-score.
Form rule: numeric answer, no unit written next to it.

// known answers, use as guide
{"columns": ["chain.sequence", "measured.value"],
 "data": [
  ["GAUUGGACCUAACAAUGGATT against NEIL3", 0.0736],
  ["GAGGGUCUCUUCUUAAGUATT against CAD", 2.37]
]}

## Task Answer with the recorded median seed-adjusted z-score of GGCAUUGCUUAAUGAUAUATT against SF3B1 only.
## Result -3.65

## Task Answer with the recorded median seed-adjusted z-score of CACCGGUGAGAUUCCCUAUTT against ZNF546 only.
## Result 0.497

## Task Answer with the recorded median seed-adjusted z-score of ACAUAGCCGUGUCCAGGUATT against GLYCTK only.
## Result 0.0328

## Task Answer with the recorded median seed-adjusted z-score of CCAACCUAAUUAUGGAGGATT against PCDHGB4 only.
## Result 0.176

###

procedure.summary: Novel Modifiers of Survival Motor Neuron (SMN) Protein: Gene Identification via Genome-wide siRNA Screen;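 further: luminescence tracks full-length SMN protein made from the SMN2 reporter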
condition.summary: HEK293T SMN2-luciferase reporter, siRNA knockdown, 72 h; actives lie on both sides
The whole screen tested about 31,000 sequences, of which about 1,400 (4.5%) were called active.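 How the source made its calls: active means median seed-adjusted z-score above 1 or below -1; inactive means the rest.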 This excerpt belongs to a sample that is enriched for actives.
Select the correct class. Options are active, inactive and nothing else.

{"columns": ["chain.sequence", "class.label"],
 "data": [
  ["CGGGUGCACUACUACAUCUTT against GBGT1", "inactive"],
  ["GAUGCGCACUCAGUCCUUATT against MLLT4", "inactive"],
  ["GCUCGGUGGUUGAUAAUCATT against SLC22A10", "inactive"]
]}

## Task Write down the call the test reported for this sequence. Item: GAGUUCCUCUGGUCACUAUTT against TTC18
## Result active

## Task Write down the call the test reported for this sequence. Item: CGUGAUCUCAAGUCCAACATT against MAP3K11
## Result inactive

## Task Write down the call the test reported for this sequence. Item: GGAUCGCUGUCUCUAACUUTT against RRM1
## Result active

## Task Write down the call the test reported for this sequence. Item: CGAGAUCUCAAGUCUAACATT against ARAF
## Result inactive

## Task Write down the call the test reported for this sequence. Item: CCCUCAAGGUACAAACAUUTT against POLD1
## Result inactive

## Task Write down the call the test reported for this sequence. Item: CUGAUGCUCUGUAUCCCAATT against TNRC4
## Result inactive

## Task Write down the call the test reported for this sequence. Item: GAACCUAUCUGAUCGGCAATT against RFX3
## Result inactive

## Task Write down the call the test reported for this sequence. Item: UGAAAGGACUUGUCUGAAATT against CHST6
## Result inactive

## Task Write down the call the test reported for this sequence. Item: CCAUUUGGAUAUCAAAGUATT against ILF2
## Result inactive

###

Each entry below carries its reported median seed-adjusted z-score.
procedure.summary: Novel Modifiers of Survival Motor Neuron (SMN) Protein: Gene Identification via Genome-wide siRNA Screen;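 further: luminescence tracks full-length SMN protein made from the SMN2 reporter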
condition.summary: HEK293T SMN2-luciferase reporter, siRNA knockdown, 72 h; actives lie on both sides
The campaign covered roughly 31,000 sequences. About 1,400 (4.5%) were called active. This excerpt belongs to a sample that is enriched for actives.
Form rule: numeric answer, no unit written next to it.

{"columns": ["chain.sequence", "measured.value"],
 "data": [
  ["CCAUCUGUUUGAACUUAGATT against TLR5", 0],
  ["CAAGCGAAUUAACUAUCUATT against GJB3", -0.198],
  ["CAAUGGAUCGGCUUCCUUATT against ADRA2B", 0.00853],
  ["GGAGAGCUGUGAAAAGUCATT against CCR8", -0.206],
  ["CCCUACAUGUGAACAACGATT against PRPF8", -1.54],
  ["GAAUGGGUCUUGUAAAUCATT against PPAT", -1.51],
  ["GGUCUUGAAGUGUACCCUATT against ITGAV", 1.17],
  ["CAGACAGUAUGUUCGAAGATT against PPAT", -1.51],
  ["CCUAUACUGUGGGCUAUAATT against STARD4", 0.173],
  ["CAUCCGACAUUGAAGUUGATT against B2M", -0.367]
]}

## Task Answer with the recorded median seed-adjusted z-score of GCAGGACCCAUUACGGCUATT against DPEP1 only.
## Result -0.886

## Task Answer with the recorded median seed-adjusted z-score of CUGUGAAGAUAGAAGGAUATT against CAPZA1 only.
## Result -0.0237

## Task Answer with the recorded median seed-adjusted z-score of GAAACCCUAUUACGAUGAATT against SOX30 only.
## Result -0.167

###

procedure.summary: Novel Modifiers of Survival Motor Neuron (SMN) Protein: Gene Identification via Genome-wide siRNA Screen;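 further: luminescence tracks full-length SMN protein made from the SMN2 reporter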
condition.summary: HEK293T SMN2-luciferase reporter, siRNA knockdown, 72 h; actives lie on both sides
Method: Spinal muscular atrophy (SMA) is the most common neuromuscular autosomal recessive disorder and one of the leading genetic causes of infant death. […] Briefly, 1 pmol of each siRNA was spotted to a well of a 384-well plate (Corning, Corning, NY) and 20 microL of serum-free DMEM containing […] of Lipofectamine RNAiMax (Life Technologies, Carlsbad, CA) was then added to each well. […] Raw luminescence reads were normalized to Ambion(R) Silencer(R) Negative Control #2 siRNA, then log10 transformed. […]
The whole screen tested about 31,000 sequences, of which about 1,400 (4.5%) were called active. The sample as a whole holds a higher share of actives than the screen did.
So basically, if median seed-adjusted z-score comes in under 0 it's fulfilled, and if it's 0 or more it's not fulfilled.

Illustrative cases are given below, each with its answer.
{"columns": ["chain.sequence", "class.label"],
 "data": [
  ["CAUGAACAGUUUAUCGUAATT against FMR1", "not fulfilled"],
  ["CCAUCUACCAGCUAAUCAATT against PIK3C2G", "not fulfilled"],
  ["ACAAUGAAGUUCUCCCUGATT against PCGF1", "not fulfilled"],
  ["GGUUGACUCAGAUACUACATT against CENPE", "not fulfilled"],
  ["CGAUAAAGACGGAUUCUAATT against MATK", "fulfilled"]
]}

# next sequence below
## Task Strictly below 0: is that where median seed-adjusted z-score of UCUGCUAACCUGAAAGUAATT against CARD8 sits?
## Result not fulfilled
